Test: Clinical drug interaction study (H8Y-MC-HBCF), plasma and urine pharmacokinetics in healthy subjects
Details: human, plasma, oral, 80 mg, Vz/F, single 80-mg dose of LY2140023 alone; geometric mean (CV%)
MEASURED_ENDPOINT: Vd/F (L)
Reply numerically in L, unit not repeated.

Note to self: Vd/F recorded for "N[C@@]1(C(=O)O)CS(=O)(=O)[C@H]2[C@H](C(=O)O)[C@H]21" was 86.5

---

Test: Clinical drug interaction study (H8Y-MC-HBCF), plasma and urine pharmacokinetics in healthy subjects
Conditions: human, plasma, oral, tmax, LY2140023 80 mg + valacyclovir 1000 mg coadministered; median (min–max)
MEASURED_ENDPOINT: Tmax (h)
Reply numerically in h, unit not repeated.

Study these solved cases before continuing.
>>> print(df.to_string())
                               smiles_input  endpoint_unit  result
0  N[C@@]1(C(=O)O)CS(=O)(=O)[C@H]2[C@H](C(=O)O)[C@H]21              h       4
1  CC(C)[C@H](N)C(=O)OCCOCn1cnc2c(=O)[nH]c(N)nc21              h       2

With those in mind, consider the next compound.
Note to self: Tmax recorded for "CSCC[C@H](N)C(=O)N[C@@]1(C(=O)O)CS(=O)(=O)[C@H]2[C@H](C(=O)O)[C@H]21" was 3

---

Assay: Clinical drug interaction study (H8Y-MC-HBCF), plasma and urine pharmacokinetics in healthy subjects
Details: human, plasma, oral, AUC(0-3) LS Geometric Mean, Valacyclovir + LY2140023 (Test)
MEASURED_ENDPOINT: AUC(0-t) (ng·h/mL)
Reply numerically in ng·h/mL, unit not repeated.

Note to self: AUC(0-t) recorded for CC(C)[C@H](N)C(=O)OCCOCn1cnc2c(=O)[nH]c(N)nc21 [Valacyclovir] was 278

---

Test: Clinical drug interaction study (H8Y-MC-HBCF), plasma and urine pharmacokinetics in healthy subjects
Settings: human, urine and plasma, oral, 1000 mg
MEASURED_ENDPOINT: CL renal (mL/min)
Reply numerically in mL/min, unit not repeated.

Note to self: CL renal recorded for "CC(C)[C@H](N)C(=O)OCCOCn1cnc2c(=O)[nH]c(N)nc21" was 262

---

Assay: Clinical drug interaction study (H8Y-MC-HBCF), plasma and urine pharmacokinetics in healthy subjects
Conditions: human, plasma, oral, AUC(0-∞) LS Geometric Mean, LY2140023 + Valacyclovir (Test)
MEASURED_ENDPOINT: AUC(0-inf) (ng·h/mL)
Reply numerically in ng·h/mL, unit not repeated.

>>> print(df.to_string())
                               smiles_input  measured_endpoint  result
0  N[C@@]1(C(=O)O)CS(=O)(=O)[C@H]2[C@H](C(=O)O)[C@H]21         AUC(0-inf)    2500

With those in mind, consider the next compound.
Note to self: AUC(0-inf) recorded for "CSCC[C@H](N)C(=O)N[C@@]1(C(=O)O)CS(=O)(=O)[C@H]2[C@H](C(=O)O)[C@H]21" was 1220

---

IC50 overview
Target: PEPT1 (Homo sapiens, UniProt P46059)
Sequence (P46059 whole entry): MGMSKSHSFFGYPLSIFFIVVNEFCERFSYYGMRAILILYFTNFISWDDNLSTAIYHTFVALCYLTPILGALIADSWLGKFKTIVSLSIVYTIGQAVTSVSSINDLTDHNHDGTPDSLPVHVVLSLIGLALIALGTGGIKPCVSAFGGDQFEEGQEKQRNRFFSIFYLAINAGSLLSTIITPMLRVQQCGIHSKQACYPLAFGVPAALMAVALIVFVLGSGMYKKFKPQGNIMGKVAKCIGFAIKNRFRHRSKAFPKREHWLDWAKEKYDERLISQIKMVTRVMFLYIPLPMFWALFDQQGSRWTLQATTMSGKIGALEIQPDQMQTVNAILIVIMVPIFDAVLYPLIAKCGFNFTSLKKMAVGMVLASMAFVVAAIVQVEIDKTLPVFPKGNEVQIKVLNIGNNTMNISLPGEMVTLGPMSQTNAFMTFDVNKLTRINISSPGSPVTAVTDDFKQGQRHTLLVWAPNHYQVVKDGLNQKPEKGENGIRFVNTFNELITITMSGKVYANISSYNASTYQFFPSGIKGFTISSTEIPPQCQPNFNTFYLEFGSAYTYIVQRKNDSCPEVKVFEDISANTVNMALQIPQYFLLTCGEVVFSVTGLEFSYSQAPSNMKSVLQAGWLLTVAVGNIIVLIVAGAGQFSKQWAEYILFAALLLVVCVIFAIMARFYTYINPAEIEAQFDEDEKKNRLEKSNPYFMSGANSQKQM
Assay: Inhibition of PEPT1-mediated [14C]LY2140023 uptake in transfected HeLa cells
Conditions: Mean IC50 against LY2140023, mean of two separate experiments; 10 μM [14C]LY2140023
Non-standard residues stand in square brackets, D forms with d. Residues, ends and D or L forms follow the SMILES beside them. Sar = CNCC(=O)O
Reply numerically in mM, unit not repeated.

Study these solved cases before continuing.
>>> df
                                   molecule                         tested_system  result
0  CC(C)[C@H](N)C(=O)OCCOCn1cnc2c(=O)[nH]c(N)nc21  PEPT1 (Homo sapiens, UniProt P46059)    0.46
1  CN(CC(=O)O)C(=O)CN [Gly-Sar, glycylsarcosine] (H-Gly-[Sar]-OH)  PEPT1 (Homo sapiens, UniProt P46059)    0.99
2  CC1=C(C(=O)O)N2C(=O)[C@@H](NC(=O)[C@H](N)c3ccc(O)cc3)[C@H]2SC1  PEPT1 (Homo sapiens, UniProt P46059)    4.99
3            N[C@@H](Cc1ccc(O)c(O)c1)C(=O)O  PEPT1 (Homo sapiens, UniProt P46059)    25.9
4                           NCC(=O)CCC(=O)O  PEPT1 (Homo sapiens, UniProt P46059)    1.67

Record "CCOC(=O)[C@H](CCc1ccccc1)N[C@@H](C)C(=O)N1CCC[C@H]1C(=O)O" ; system PEPT1 (Homo sapiens, UniProt P46059); IC50 = 10.7

---

Assay: Clinical drug interaction study (H8Y-MC-HBCF), plasma and urine pharmacokinetics in healthy subjects
Details: human, plasma, oral, 1000 mg, Cmax, single 1000-mg dose of valacyclovir alone; geometric mean (CV%)
MEASURED_ENDPOINT: Cmax (ng/mL)
Reply numerically in ng/mL, unit not repeated.

Note to self: Cmax recorded for "CC(C)[C@H](N)C(=O)OCCOCn1cnc2c(=O)[nH]c(N)nc21" was 245

---

Target: PEPT1 (Homo sapiens, UniProt P46059)
Experiment: Inhibition of PEPT1-mediated [14C]LY2140023 uptake in transfected HeLa cells
Settings: IC50 against LY2140023, second of two separate experiments; 10 μM [14C]LY2140023
Non-standard residues stand in square brackets, D forms with d. Residues, ends and D or L forms follow the SMILES beside them. Sar = CNCC(=O)O
pIC50 overview
// field semantics: pIC50 = negative decimal log of concentration (mol/L)

>>> df
                                   compound                         tested_system  result
0  CN(CC(=O)O)C(=O)CN [Gly-Sar, glycylsarcosine] (H-Gly-[Sar]-OH)  PEPT1 (Homo sapiens, UniProt P46059)    3.16
1  NCC(=O)CCC(=O)O [ALA, 5-aminolevulinic acid]  PEPT1 (Homo sapiens, UniProt P46059)    2.81
2  N[C@@H](Cc1ccc(O)c(O)c1)C(=O)O [L- DOPA, L-DOPA]  PEPT1 (Homo sapiens, UniProt P46059)    1.58

Record CCOC(=O)[C@H](CCc1ccccc1)N[C@@H](C)C(=O)N1CCC[C@H]1C(=O)O [Enalapril] ; system PEPT1 (Homo sapiens, UniProt P46059); pIC50 = 1.99

Record CC1=C(C(=O)O)N2C(=O)[C@@H](NC(=O)[C@H](N)c3ccc(O)cc3)[C@H]2SC1 [Cefadroxil] ; system PEPT1 (Homo sapiens, UniProt P46059); pIC50 = 2.23

Record CC(C)[C@H](N)C(=O)OCCOCn1cnc2c(=O)[nH]c(N)nc21 [Valacyclovir] ; system PEPT1 (Homo sapiens, UniProt P46059); pIC50 = 3.30

---

Experiment: Clinical drug interaction study (H8Y-MC-HBCF), plasma and urine pharmacokinetics in healthy subjects
Conditions: human, plasma, oral, Cmax, LY2140023 80 mg + valacyclovir 1000 mg coadministered; geometric mean (CV%)
MEASURED_ENDPOINT: Cmax
Give the value; after it, write the unit.

Study these solved cases before continuing.
In [3]: df
Out[3]:
                               smiles_input     result
0  N[C@@]1(C(=O)O)CS(=O)(=O)[C@H]2[C@H](C(=O)O)[C@H]21  444 ng/mL
1  CSCC[C@H](N)C(=O)N[C@@]1(C(=O)O)CS(=O)(=O)[C@H]2[C@H](C(=O)O)[C@H]21  272 ng/mL

With those in mind, consider the next molecule.
Note to self: Cmax recorded for "CC(C)[C@H](N)C(=O)OCCOCn1cnc2c(=O)[nH]c(N)nc21" was 255 ng/mL

---

Assay: Clinical drug interaction study (H8Y-MC-HBCF), plasma and urine pharmacokinetics in healthy subjects
Settings: human, urine and plasma, oral, 80 mg
MEASURED_ENDPOINT: CL renal (mL/min)
Reply numerically in mL/min, unit not repeated.

Note to self: CL renal recorded for "N[C@@]1(C(=O)O)CS(=O)(=O)[C@H]2[C@H](C(=O)O)[C@H]21" was 213

---

Assay: clinical
Settings: human, in vivo, Cmax
MEASURED_ENDPOINT: Cmax

Note to self: Cmax recorded for Nc1nc2c(ncn2COCCO)c(=O)[nH]1 [Acyclovir] was 4400 ng/mL

---

Assay: Clinical drug interaction study (H8Y-MC-HBCF), plasma and urine pharmacokinetics in healthy subjects
Settings: human, plasma, oral, 80 mg
MEASURED_ENDPOINT: half-life (h)
Reply numerically in h, unit not repeated.

>>> df
                               smiles_input  result
0  N[C@@]1(C(=O)O)CS(=O)(=O)[C@H]2[C@H](C(=O)O)[C@H]21    3.05

With those in mind, consider the next molecule.
Note to self: half-life recorded for "CSCC[C@H](N)C(=O)N[C@@]1(C(=O)O)CS(=O)(=O)[C@H]2[C@H](C(=O)O)[C@H]21" was 1.92
